Kindly supply the reported formation rate (%) 2 hr later values for the records listed here.
- target: Endoplasmic reticulum aminopeptidase 1 (ERAP1) (UniProt Q9NZ08 1-941, limits assumed)
- Sequence (Q9NZ08 whole entry): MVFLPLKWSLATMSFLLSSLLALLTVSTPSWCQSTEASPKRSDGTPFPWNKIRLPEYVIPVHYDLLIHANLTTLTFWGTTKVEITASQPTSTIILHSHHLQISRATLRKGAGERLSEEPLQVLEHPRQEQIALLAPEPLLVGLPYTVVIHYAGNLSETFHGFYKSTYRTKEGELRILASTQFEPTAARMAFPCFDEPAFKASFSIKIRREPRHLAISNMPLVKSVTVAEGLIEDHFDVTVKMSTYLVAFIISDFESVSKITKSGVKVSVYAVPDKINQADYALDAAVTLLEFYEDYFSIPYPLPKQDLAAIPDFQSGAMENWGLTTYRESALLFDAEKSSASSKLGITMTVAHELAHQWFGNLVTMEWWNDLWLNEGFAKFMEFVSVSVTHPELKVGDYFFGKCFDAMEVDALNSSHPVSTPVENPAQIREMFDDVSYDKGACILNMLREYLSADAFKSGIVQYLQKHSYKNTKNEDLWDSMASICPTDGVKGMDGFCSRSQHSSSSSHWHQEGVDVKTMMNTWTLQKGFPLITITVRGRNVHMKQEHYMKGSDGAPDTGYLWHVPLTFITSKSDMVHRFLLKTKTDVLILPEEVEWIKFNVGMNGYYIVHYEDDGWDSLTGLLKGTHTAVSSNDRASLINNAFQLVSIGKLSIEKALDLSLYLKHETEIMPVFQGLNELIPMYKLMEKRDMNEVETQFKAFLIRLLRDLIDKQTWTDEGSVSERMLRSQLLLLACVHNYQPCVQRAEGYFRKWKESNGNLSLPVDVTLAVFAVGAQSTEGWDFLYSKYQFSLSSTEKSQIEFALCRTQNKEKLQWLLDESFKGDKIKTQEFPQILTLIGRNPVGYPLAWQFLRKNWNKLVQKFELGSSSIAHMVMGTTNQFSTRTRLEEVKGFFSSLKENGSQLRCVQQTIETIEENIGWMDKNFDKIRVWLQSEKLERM
- experiment summary: cell-based or functional assay
One number for each entry, in %.

# count of solved cases: 4
> print(dat)
                                     binder  unit  data.value
1  CAVLQELNVTV [peptide CAVLQELNVTV (SEQ ID NO: 92)]     %        49.9
2  CMGLYDGMEHL [peptide CMGLYDGMEHL (SEQ ID NO: 91)]     %         103
3  CAGLYDGMEHL [peptide CAGLYDGMEHL (SEQ ID NO: 89)]     %        99.4
4  H-CGLYDGMEHL-OH [peptide CGLYDGMEHL (SEQ ID NO: 98)]     %         106

Note down formation rate (%) 2 hr later recorded for CLGLYDGMEHL [peptide CLGLYDGMEHL (SEQ ID NO: 90)]
94.9
